- Test system: IGR-OV1 cells
- assayOverview: NCI-60 panel antiproliferation, IGR-OV1
- Type: cell-based, human
- recordedConditions: Homo sapiens, IGROV-1, NCI 60-cell panel
readoutKind: pIC50
API: returns pIC50 as number; meaning -log10 of concentration in mol/L.

Give pIC50 for this entry on IGR-OV1 cells: `C=CC[C@H]1C[C@]2([C@@H](C)Cc3ccc(OC)c(F)c3)OCOC2=CC1=O`
7.20

###

- Test system: SK-Mel-5 cells
- assayOverview: NCI-60 panel antiproliferation, SK-MEL-5
- Assay type: cell-based, human
- recordedConditions: Homo sapiens, NCI 60-cell panel
readoutKind: pIC50
Keep it numeric: pIC50 is minus log10 of the concentration in mol/L.

Would you please give the reported pIC50 of `C=CC[C@H]1C[C@]2([C@@H](C)Cc3ccc(OC)c(F)c3)OCOC2=CC1=O` with SK-Mel-5 cells?
7.22

###

- Test system: SR cells
- assayOverview: NCI-60 panel antiproliferation, SR
- Format: cell-based, human
- recordedConditions: NCI 60-cell panel
readoutKind: IC50 (nM)
Quick note: give the figure in nM, leave out the unit.

Please give measured IC50 of the following entry: `C=CC[C@H]1C[C@]2([C@@H](C)Cc3ccc(OC)c(OC)c3)OCOC2=CC1=O`
80

###

- Test system: NCI-H460 (large cell lung carcinoma) cells
- assayOverview: antiproliferation assay (72 h, CELLTITER 96), NCI-H460
- Type: cell-based, human
- recordedConditions: Table 5; read-out: NCI-H460 IC50
pIC50: −log10 of the molar value.
readoutKind: pIC50

State its pIC50 for this molecule: `C=CC[C@H]1C[C@]2([C@@H](C)Cc3ccc(NC(C)=O)c(F)c3)OCOC2=CC1=O`
< 4.70

###

- Test system: M14 (amelanotic melanoma) cells
- assayOverview: antiproliferation assay (72 h, CELLTITER 96), M14
- Type: cell-based, human
- recordedConditions: Homo sapiens; Table 7
Listed here are compounds together with their documented pIC50.
Keep in mind that pIC50 stands for -log10 of concentration in molar terms.

compound="CCC[C@H]1C[C@]2([C@@H](C)Cc3ccc(OC)c(OC)c3)OCOC2=CC1=O [Compound 70]" readoutkind=pIC50 reading=5.13
compound="C=C(F)C[C@H]1C[C@]2([C@@H](C)Cc3cc(F)c(OC)cc3F)OCOC2=CC1=O [Compound 64]" readoutkind=pIC50 reading=6.85
compound="COc1cc(F)c(C[C@H](C)[C@]23C[C@H](CCSC)C(=O)C=C2OCO3)cc1O [Compound 76]" readoutkind=pIC50 reading=6.52
compound="COc1ccc(C[C@H](C)[C@]23C[C@H](C/C=C/c4ccccc4)C(=O)C=C2OCO3)cc1OC (relative stereo) [Compound 71]" readoutkind=pIC50 reading=5.19

Tell me its pIC50 given COc1cc(F)c(C[C@H](C)[C@]23C[C@H](Cc4ccco4)C(=O)C=C2OCO3)cc1O [Compound 113] as the entry.
5.80

Supply reported pIC50 belonging to this compound: CC[C@H]1C[C@]2([C@H](C)Cc3cc(F)c(OC)cc3F)OCOC2=CC1=O [Compound 58]
6.54

Supply measured pIC50 of COC[C@H]1C[C@]2([C@@H](C)Cc3cc(O)c(OC)cc3F)OCOC2=CC1=O [Compound 65] in your reply.
6.19

Look up and state reported pIC50 for COc1cc(F)c(C[C@H](C)[C@]23C[C@H](CC(C)=O)C(=O)C=C2OCO3)cc1O [Compound 111]
5.15

Item C/C=C/[C@H]1C[C@]2([C@@H](C)Cc3cc(O)c(OC)cc3F)OCOC2=CC1=O [Compound 75] : provide pIC50
6.29

Annotate the compound C=C[C@H](C)[C@H]1C[C@]2([C@@H](C)Cc3ccc(OC)cc3F)OCOC2=CC1=O [Compound 110] with its measured pIC50.
6.54

Item C#CC[C@H]1C[C@]2([C@@H](C)Cc3ccc(OC)cc3F)OCOC2=CC1=O [Compound 62] : provide pIC50
6.70

Assign pIC50 to the following record: CCS[C@H]1C[C@]2([C@@H](C)Cc3ccc(OC)cc3F)OCOC2=CC1=O [Compound 115]
4.95

Consider the compound C=C(Cl)C[C@H]1C[C@]2([C@@H](C)Cc3ccc(OC)cc3F)OCOC2=CC1=O [Compound 79] . State its measured pIC50.
5.89

Please indicate pIC50 recorded for CCC[C@H]1C[C@]2([C@@H](C)Cc3cc(O)c(OC)cc3F)OCOC2=CC1=O [Compound 59]
7.24

Read the entry COCC[C@H]1C[C@]2([C@@H](C)Cc3cc(O)c(OC)cc3F)OCOC2=CC1=O [Compound 78] and write its reported pIC50.
6.72

Quickly give me recorded pIC50 for COc1ccc(C[C@H](C)[C@]23C[C@H](CC=C(F)F)C(=O)C=C2OCO3)c(F)c1 [Compound 68]
6.07

Identify pIC50 associated with the compound CC[C@H]1C[C@]2([C@@H](C)Cc3cc(F)c(OC)cc3F)OCOC2=CC1=O [Compound 57]
6.85

State, in one line, measured pIC50 of C=C(C)C[C@H]1C[C@]2([C@@H](C)Cc3cc(O)c(OC)cc3F)OCOC2=CC1=O [Compound 80]
6.66

###

- System: M14 (amelanotic melanoma) cells
- assayOverview: antiproliferation assay (72 h, CELLTITER 96), M14
- Format: cell-based, human
- recordedConditions: Homo sapiens; Table 7
readoutKind: pIC50
pIC50 field: float, defined as -log10 of concentration (mol/L).

compound=CC[C@H](C)[C@H]1C[C@]2([C@@H](C)Cc3cc(O)c(OC)cc3F)OCOC2=CC1=O studysystem="M14 (amelanotic melanoma) cells" readoutkind=pIC50 reading=6.96

Write down pIC50 measured for item COc1cc(F)c(C[C@H](C)[C@]23C[C@H](CC(C)O)C(=O)C=C2OCO3)cc1O (stereo partly shown)
6.19

Please give measured pIC50 of the following entry: `COc1cc(F)c(C[C@H](C)[C@]23C[C@H](CCCF)C(=O)C=C2OCO3)cc1O`
6.24

Recall and state the measured pIC50 for COc1cc(F)c(CC(C)[C@]23C[C@H](C)C(=O)C=C2OCO3)cc1F (stereo partly shown) .
6.85

Give reported pIC50 value for `COc1ccc(C[C@H](C)[C@]23C[C@H](CC=C(C)C)C(=O)C=C2OCO3)cc1OC`
5.15

Write down pIC50 measured for item `COc1cc(F)c(C[C@H](C)[C@]23C[C@H](Cc4ccncc4)C(=O)C=C2OCO3)cc1O`
5.46

Please report pIC50 for the following compound: `CCC[C@H]1C[C@]2([C@H](C)Cc3cc(F)c(OC)cc3F)OCOC2=CC1=O`
7.77

Dear colleague, please send me the reported pIC50 for `C/C=C/C[C@H]1C[C@]2([C@@H](C)Cc3ccc(OC)cc3F)OCOC2=CC1=O` when you can.
6.68

Specify pIC50 for `CCC[C@H]1C[C@]2([C@H](C)Cc3cc(O)c(OC)cc3F)OCOC2=CC1=O` and stop.
8.23

Tell me measured pIC50 for `C/C=C/[C@H]1C[C@]2([C@H](C)Cc3cc(O)c(OC)cc3F)OCOC2=CC1=O` please.
6.92

###

- Test system: M14 (amelanotic melanoma) cells
- assayOverview: antiproliferation assay (72 h, CELLTITER 96), M14
- Assay type: cell-based, human
- recordedConditions: Homo sapiens; Table 7
readoutKind: IC50

See these solved cases before continuing.
compound=COc1cc(F)c(C[C@H](C)[C@]23CCC(=O)C=C2OCO3)cc1O studysystem="M14 (amelanotic melanoma) cells" reading="> 20 µM"
compound="COc1ccc(C[C@H](C)[C@]23C[C@H](CC4CC4)C(=O)C=C2OCO3)c(F)c1 (relative stereo)" studysystem="M14 (amelanotic melanoma) cells" reading="> 20 µM"

Recall and state the measured IC50 for COc1ccc(CC(C)[C@]23CC(CC(C)=O)C(=O)C=C2OCO3)cc1OC (stereo partly drawn) .
> 20 µM

Origin of measurements: patent US9562031B1
